// provenance: patent US20230158025A1

- systemName: recombinant human GALK1 (Homo sapiens, UniProt P51570)
- Sequence (P51570 whole entry): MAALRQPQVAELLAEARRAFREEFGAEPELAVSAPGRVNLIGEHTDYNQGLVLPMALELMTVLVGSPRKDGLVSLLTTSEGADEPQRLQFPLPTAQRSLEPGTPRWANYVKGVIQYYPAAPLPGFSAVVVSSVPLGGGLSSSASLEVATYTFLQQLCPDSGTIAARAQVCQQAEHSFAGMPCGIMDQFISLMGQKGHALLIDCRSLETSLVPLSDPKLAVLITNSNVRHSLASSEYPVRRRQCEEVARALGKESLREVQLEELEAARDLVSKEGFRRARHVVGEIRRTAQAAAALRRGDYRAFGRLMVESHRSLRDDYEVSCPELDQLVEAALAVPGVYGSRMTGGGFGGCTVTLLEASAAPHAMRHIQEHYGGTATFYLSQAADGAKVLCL
- measurementDescription: hGALK1 biochemical activity assay (Kinase-Glo Plus, ATP depletion)
- measurementSetup: recombinant human GALK1, Kinase-Glo Plus ATP depletion; bracketed figure in the cell, e.g. (−1.2), is not defined in the text shown; read-out: hGALK
experimentalReadout: IC50 (µM)

Before answering, review these 2 worked examples.
CCOC(=O)N1C(Nc2nc3ccccc3o2)=NC(c2ccccc2Cl)C(C(=O)Nc2cc(C(=O)O)ccn2)=C1C (stereo not shown) [Compound 274]; 9.68
COCCNC(=O)C1CC(=O)C2=C(C1)NC(Nc1nc3ccccc3o1)=NC2c1ccccc1Cl (stereo not shown) [Compound 280]; 4.85

I. CC1=C(C(=O)Nc2nncs2)C2(CCCC2)N=C(Nc2nc3ccccc3o2)N1 [Compound 252]
II. CN(C)CCNC(=O)C1CC(=O)C2=C(C1)NC(Nc1nc3ccccc3o1)=NC2c1ccccc1Cl (stereo not shown) [Compound 284]
Q: Task for the reader: decide whether I or II has the larger IC50. The response must carry the label of the picked entry.
Result: II
(II: 12.2 µM, I: 3.85 µM)

----------
- measurementDescription: aqueous kinetic solubility
- measurementSetup: aqueous kinetic solubility
experimentalReadout: Sol. (µg/mL)

Before answering, review these 2 worked examples.
CC1=C(C(=O)Nc2nncs2)C(c2n[nH]cc2Br)N=C(Nc2nc3ccccc3o2)N1 (stereo not drawn) [Compound 268]; 11.4
O=C1CC(C(=O)N2CCNCC2)CC2=C1C(c1ccccc1Cl)N=C(Nc1nc3ccccc3o1)N2 (stereo not drawn) [Compound 282]; 23.88

1. CC1=C(C(=O)NCc2cnn(C)c2)C(c2ccc(F)cc2Cl)N=C(Nc2nc3cccc(N)c3o2)N1 (stereo not drawn) [Compound 119]
2. CC1=C(C(=O)Nc2nncs2)C(c2nn(C)cc2Cl)N=C(Nc2nc3ccccc3o2)N1 (stereo not drawn) [Compound 253]
3. CC1=C(C(=O)Nc2ccc(C(=O)O)nc2)C(c2ccccc2Cl)N=C(Nc2nc3ccccc3o2)N1 (stereo not drawn) [Compound 164]
4. O=C(Nc1nncs1)C1=C(c2cnccn2)NC(Nc2nc3ccccc3o2)=NC1c1ccccc1Cl (stereo not drawn) [Compound 249]
Q: Order each entry by recorded Sol., climbing from the minimum. List the labels, following the order given in the request.
Result: 4, 2, 3, 1
(4: 2.1 µg/mL, 2: 12.8 µg/mL, 3: 24.6 µg/mL, 1: 49.6 µg/mL)

----------
- measurementDescription: aqueous kinetic solubility
- measurementSetup: aqueous kinetic solubility
experimentalReadout: Sol. (µg/mL)

Before answering, review these 2 worked examples.
CC1=C(C(=O)NCc2cn(C)cn2)C(c2ccccc2Cl)N=C(Nc2nc3ccccc3o2)N1 (racemic); 26.6
CN(C)C(=O)C1CC(=O)C2=C(C1)NC(Nc1nc3ccccc3o1)=NC2c1ccccc1Cl (centres unmarked); 10.84

A. CC1=C(C(=O)Nc2cccc(C(=O)O)c2)C(c2ccccc2Cl)N=C(Nc2nc3ccccc3o2)N1 (centres unmarked)
B. CC1=C(C(=O)Nc2nncs2)C2(CCSCC2)N=C(Nc2nc3ccccc3o2)N1
Q: Task for the reader: decide whether A or B has the larger Sol.. The response must carry the label of the picked entry.
Result: A

----------
- systemName: hGALK1m (Homo sapiens, UniProt P51570, E253A/K252A)
- Construct: made in house; host or cells: E. coli HMS174
- Sequence (P51570 whole entry K252A/E253A): as the sequence (P51570 whole entry) above, with K252A, E253A counted along it
- measurementDescription: in vitro hGALK1 activity assay of the structure-based optimisation (Example 12, Tables 17-20)
- Assay type: biochemical
- measurementSetup: increase in potency relative to the unsubstituted parent
experimentalReadout: fold improvement of potency (IC50) versus parent compound (fold)

CC1=C(C(=O)Nc2cc(C(=O)O)ccn2)C(c2ccc(C)cc2Cl)N=C(Nc2nc3ccc(F)cc3o2)N1 (racemic); 2

A. CC1=C(C(=O)Nc2cc(C(=O)O)ccn2)C(c2ccccc2Cl)N=C(Nc2nc3cccc(C)c3o2)N1 (stereo not shown)
B. CC1=C(C(=O)Nc2cc(C(=O)O)ccn2)C(c2ccccc2Cl)N=C(Nc2nc3cccc(N)c3o2)N1 (racemic)
Q: // compare measured fold improvement of potency (IC50) versus parent compound between A and B ; output the lower one The response must carry the label of the picked entry.
Result: A
